B1: MIA2 (parent)
chain: DMVSNIELPTRIHEEVYFEPSSSK

Variants of: B1
test_description: protein stability index of a GFP-peptide fusion (GPS, HEK-293T) (PSI 1-6); higher = more stable;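 further: lentivirally expressed fusions sorted by FACS into six bins by GFP to DsRed ratio, PSI derived from sequencing read proportions per bin multiplied by bin number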
condition_summary: c terminus: a fixed tail appended
attribute_measured: protein stability index
Number only, no unit.

Kindly indicate its recorded protein stability index. Item: `D1K`
3.93

Kindly indicate its recorded protein stability index. Item: `I6F`
4.08

Kindly indicate its recorded protein stability index. Item: `T10P`
4

Kindly indicate its recorded protein stability index. Item: `K24S`
3.95

Kindly indicate its recorded protein stability index. Item: `V3M`
4.09

Kindly indicate its recorded protein stability index. Item: `M2C`
4.99

Kindly indicate its recorded protein stability index. Item: `E19I`
2.64

Kindly indicate its recorded protein stability index. Item: `N5R`
3.92

Kindly indicate its recorded protein stability index. Item: `N5M`
3.99

Kindly indicate its recorded protein stability index. Item: `D1V`
1.98

Kindly indicate its recorded protein stability index. Item: `V3Y`
3.87

Kindly indicate its recorded protein stability index. Item: `V16N`
4.47

Kindly indicate its recorded protein stability index. Item: `M2D`
5.43

Kindly indicate its recorded protein stability index. Item: `S23M`
3.29

Kindly indicate its recorded protein stability index. Item: `N5G`
3.84

Kindly indicate its recorded protein stability index. Item: `I12D`
4.79

Kindly indicate its recorded protein stability index. Item: `D1N`
4.15

Kindly indicate its recorded protein stability index. Item: `T10G`
3.83

Kindly indicate its recorded protein stability index. Item: `S21M`
3.4

Kindly indicate its recorded protein stability index. Item: `F18E`
4.68

Kindly indicate its recorded protein stability index. Item: `F18P`
4.23

Kindly indicate its recorded protein stability index. Item: `S22R`
3.73

Kindly indicate its recorded protein stability index. Item: `F18Y`
4.76

Kindly indicate its recorded protein stability index. Item: `S23K`
3.65

Kindly indicate its recorded protein stability index. Item: `S23G`
4.28

Kindly indicate its recorded protein stability index. Item: `S22W`
3.17

The measured values listed here are drawn from the supplement of paper PMC10567573.
